system name: T1, human PXR-GST (Invitrogen) (human) (UniProt O75469)
T1 sequence: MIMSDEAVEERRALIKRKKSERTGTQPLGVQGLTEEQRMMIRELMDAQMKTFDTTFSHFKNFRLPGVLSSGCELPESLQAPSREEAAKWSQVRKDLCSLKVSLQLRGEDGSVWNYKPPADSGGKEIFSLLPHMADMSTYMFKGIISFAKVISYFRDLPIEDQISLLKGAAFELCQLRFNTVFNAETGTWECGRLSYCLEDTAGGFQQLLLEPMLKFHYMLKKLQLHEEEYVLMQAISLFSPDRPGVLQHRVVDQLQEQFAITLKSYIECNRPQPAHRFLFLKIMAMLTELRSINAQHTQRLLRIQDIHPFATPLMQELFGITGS
test name: SPR (Biacore T100), Adnectin series over human PXR-GST captured by anti-GST antibody
readout kind: pKd
Just the number, please; pKd means minus log10 of the concentration in mol/L.

Using the record for Adnectin-4 (designed binder) MASTSGVSDVPRDLEVVAATPTSLLISWDAPAVTVHSYYITYQELQHHSVPQGFQVPGSKSTATISGLKPGVAYQIAVYAFTGPGLPPSDAPPIVIYYRTEGSGSHHHHHH , state its measured pKd.
8.11

Using the record for Adnectin-5 (designed binder) MGVSDVPRDLEVVAATPTSLLISWKYPYETISYYRITYGETGGNSPVQEFTVPYYRSTATISGLKPGVDYTITVYAVEASAPYSDGGSPISINYRTEIDKPSQHHHHHH , state its measured pKd.
8.27

Using the record for Adnectin-8 (designed binder) MGVSDVPRDLEVVAATPTSLLISWSQPGRYVKYYRITYGETGGNSPVQEFTVPNDTYTATISGLKPGVDYTITVYAVYGKYGPYYGYDPISINYRTEIDKPSQHHHHHH , state its measured pKd.
8.36

Using the record for Adnectin-3 (designed binder) MASTSGVSDVPRDLEVVAATPTSLLISWDAPAVPVSKYVIYYWPGALISSMQAFKVPGSKSTATISGLKPGVLYSIVVDALTGDGQGSYVWDPITITYRTEGSGSHHHHHH , state its measured pKd.
8.60

These measurements were taken from patent US11279751B2.
